src = PubChem BioAssay (EPA / NIEHS)

# EXPERIMENTAL PROTOCOL: CCTE_Shafer_MEA_acute_firing_rate_mean: CCTE's Neural Acute Assay for Mean Firing Rate, Shafer Lab (AID 2284009);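 note: analyzed for loss of signal so actives lower firing rate relative to DMSO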
# Procedure: CCTE_Shafer_MEA_acute assay is conducted using Axion Biosystems 48 well microelectrode array (MEA) plates and Maestro recording system. Each well of the MEA plate contains a grid of 16 microelectrodes embedded in the culture surface. Electrically active cells, such as neurons, can be cultured over the electrodes, and electrical activity in these cells can be recorded extracellularly. […]
Active and inactive are the calls of the source. Rule for the calls: active = hit-call score of the fitted dose curve at least 0.9, where 1 is the maximum; inactive = score below 0.9.
REPORTED PROPERTY: AC50

CCSC(=O)N(CC)C1CCCCC1	20 µM (active)
ClC(Cl)=C(c1ccc(Cl)cc1)c1ccc(Cl)cc1	inactive
CC#Cc1cc(C)nc(Nc2ccccc2)n1	4.06 µM (active)
CC(c1ccc(O)cc1)(c1ccc(O)cc1)c1ccc(O)cc1	3.97 µM (active)
CO/C=C(/C(=O)OC)c1ccccc1COc1cccc(C(F)(F)F)n1	0.28 µM (active)

The record that follows has no AC50 shown yet.
Asked: Given the compound `O=C(N[C@H]1CN2CCC1CC2)c1cc2ccoc2cn1` , what is its reported AC50?
Given back: inactive
